Molecular target: T1, PUF4 RNA-binding domain (Saccharomyces cerevisiae, UniProt P25339 537-888)
T1 sequence: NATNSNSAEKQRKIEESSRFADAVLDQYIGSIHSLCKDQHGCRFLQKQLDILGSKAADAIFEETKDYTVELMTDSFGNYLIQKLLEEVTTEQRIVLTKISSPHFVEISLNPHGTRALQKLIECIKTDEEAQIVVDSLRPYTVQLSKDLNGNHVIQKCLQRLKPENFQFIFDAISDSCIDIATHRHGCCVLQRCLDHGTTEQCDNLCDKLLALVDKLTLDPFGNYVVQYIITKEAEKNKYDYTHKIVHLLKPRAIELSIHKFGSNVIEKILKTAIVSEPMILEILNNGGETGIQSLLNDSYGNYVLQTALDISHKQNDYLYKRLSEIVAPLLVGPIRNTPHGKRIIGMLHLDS
Assay: Mg; RNA-MaP; 20 mM Na-HEPES pH 7.4, 30 mM KOAc, 0.75 mM MgCl2, 0.1% Tween-20, 5% glycerol, 0.1 mg/mL BSA, 2 mM DTT; 25 C; 0.0125-409.6 nM protein
Conditions: tags: N-His6-TEV cleaved; C-SNAP kept, Cy3B-labelled; label: tethered on chip by stalled RNA polymerase
Assignment: determine reported pKd for the given binders.
pKd is defined as minus the log10 of a concentration measured in mol/L.

The recorded pKd for Ie_S2_P4E.1_K4.1_C4.1_H4.1_[+2CTCT]_A4.1_F4.1_T4.1 (ssRNA) RNA: UUUGAUUAAUAUGAUAUCGUUCUUUCUUGCUCUUAUAUUAUUCUUUCUCGAUAUCAUAUUAAUCUUU is 7.32

Entry Id_ii_S4_P3E.3_K3.2_C3.2_[T-1G]_H3.2_A3.1_F3.1_T3.2_[T9A] (ssRNA) RNA: UUUGACAACUGAUCGUUCUUUCUCGUAUAUAUAAAUUCUUUCUCGAUCAGUUGUCUUU , pKd reported as 6.39

# pKd (binder: UCUCUUUGUCUCUUAUCUCUU (ssRNA) [Ib_S1_P4E.1_K4.1_C4.1_H4.1_[A4C]_A4.1_[A6C]_F4.1_T4.1] ) is 6.09

Reported pKd for UCUCUUUGUGUUUAUCUCUU (ssRNA) [Ib_S1_P3E.1_K3.1_C3.1_H3.1_[A4G]_A3.1_[A6T]_F3.1_T3.1] was 6.26

Per the record, ACAAACUUUAUAUAUUAUCACAAAC (ssRNA) [Id_ii_S3_P4E.3_K4.2_C4.2_[C-2T]_H4.2_A4.1_F4.1_T4.2_[G10T]_[T11C]] has pKd of 7.78

// recorded pKd for Ic_S4_P5E.1_K5.1_C5.1_H5.1_A5.1_[T5A]_[T6A]_[A7C]_F5.1_[T8C]_[A10C]_T5.1 (ssRNA) RNA: UUUGACAACUGAUCGUUCUUUCUUGUAAACCUCUUCUUUCUCGAUCAGUUGUCUUU : 6.63

// field: pKd; key: Ic_S2_P4E.1_K4.1_C4.1_H4.1_A4.1_[T5G]_[A6C]_[T7A]_F4.1_[T8A]_T4.1 (ssRNA) RNA: UUUGAUUAAUAUGAUAUCGUUCUUUCUUGUAGCAAAUUCUUUCUCGAUAUCAUAUUAAUCUUU ; value = 6.44

Lab book: pKd of UCUCUUACUAUAUAUUAAAUCUCUU (ssRNA) [Id_ii_S1_P4E.3_K4.2_C4.2_[C-2A]_[T-1C]_H4.2_A4.1_F4.1_T4.2_[G10A]_[T11A]] noted as 7.06

Record UCUCUUCCUAUAUAUAUGUCUCUU (ssRNA) [Id_ii_S1_P3E.3_K3.2_C3.2_[T-1C]_H3.2_A3.1_F3.1_T3.2_[A10G]] . Reported pKd: 6.11

Recorded result, Ib_S2_P4E.1_K4.1_C4.1_H4.1_A4.1_[A6G]_F4.1_[A9T]_T4.1 (ssRNA) RNA: UUUGAUUAAUAUGAUAUCGUUCUUUCUUGUAUGUUUUUCUUUCUCGAUAUCAUAUUAAUCUUU , pKd: 7.74

The binder UCUCUUCUUGUACCCUAUAUAUCUCUU (ssRNA) [Ie_S1_P3E.2_K3.1_C3.2_H3.1_[+4CCC]_A3.1_F3.1_T3.2] showed pKd equal to 8.08

# pKd (binder: Ic_S2_P4E.1_K4.1_C4.1_H4.1_A4.1_[T5C]_[T7A]_F4.1_[A9G]_T4.1 (ssRNA) RNA: UUUGAUUAAUAUGAUAUCGUUCUUUCUUGUACAAUGUUCUUUCUCGAUAUCAUAUUAAUCUUU ) is 8.14

Looking up UCUCUUUGUACGAUCAUCUCUU (ssRNA) [Ic_S1_P5E.1_K5.1_C5.1_H5.1_A5.1_[T5C]_[T6G]_F5.1_[T9C]_T5.1] , I found its pKd recorded as 7.05

Briefly, pKd measured for UCUCUUCUUAUAUAUAUGUCUCUU (ssRNA) [Id_ii_S1_P3E.3_K3.2_C3.2_H3.2_A3.1_F3.1_T3.2_[A10G]] : 6.30

Note to self: pKd recorded for UCUCUUUGCCUCUUAUAUUAUCUCUU (ssRNA) [Ie_S1_P4E.1_K4.1_C4.1_H4.1_[+2CCTCT]_A4.1_F4.1_T4.1] was 5.67

response.value for Ic_S4_P4E.1_K4.1_C4.1_H4.1_A4.1_[T5A]_[T7A]_F4.1_[A9G]_T4.1 (ssRNA) RNA: UUUGACAACUGAUCGUUCUUUCUUGUAAAAUGUUCUUUCUCGAUCAGUUGUCUUU (field: pKd) = 7.35

Item: Ic_S2_P3E.1_K3.1_C3.1_H3.1_A3.1_[T5A]_[A6C]_F3.1_[T7A]_[A8G]_T3.1 (ssRNA) RNA: UUUGAUUAAUAUGAUAUCGUUCUUUCUUGUAACAGUUCUUUCUCGAUAUCAUAUUAAUCUUU | pKd: 6.02

Id_ii_S2_P3E.3_K3.2_C3.2_[C-2T]_[T-1C]_H3.2_A3.1_F3.1_T3.2_[T9C] (ssRNA) RNA: UUUGAUUAAUAUGAUAUCGUUCUUUCUUCUAUAUAUACAUUCUUUCUCGAUAUCAUAUUAAUCUUU has a reported pKd of 6.76

Recorded pKd (binder Id_ii_S4_P4E.4_K4.3_C4.2_[C-2G]_H4.3_A4.1_F4.1_T4.2_[G10T] (ssRNA) RNA: UUUGACAACUGAUCGUUCUUUCUGUACACUAUUAUUUUCUUUCUCGAUCAGUUGUCUUU ): 9.41

binder UCUCUUUGUCCCUAUUAUUAUCUCUU (ssRNA) [Ie_S1_P5E.1_K5.1_C5.1_H5.1_[+3CCCT]_A5.1_F5.1_T5.1] , pKd observed: 5.96

The value of pKd measured for the binder Id_ii_S2_P4E.4_K4.3_C4.2_[C-2T]_H4.3_A4.1_F4.1_T4.2_[G10C]_[T11A] (ssRNA) RNA: UUUGAUUAAUAUGAUAUCGUUCUUUCUUUACACUAUUACAUUCUUUCUCGAUAUCAUAUUAAUCUUU turned out to be 6.70

// pKd lookup, binder = Ie_S2_P5E.1_K5.1_C5.1_H5.1_[+4TCC]_A5.1_F5.1_T5.1 (ssRNA) RNA: UUUGAUUAAUAUGAUAUCGUUCUUUCUUGUAUCCUUAUUAUUCUUUCUCGAUAUCAUAUUAAUCUUU , result: 8.58

Lab book: pKd of UCUCUUGCACACUAUAUAUCUCUU (ssRNA) [Id_i_S1_P3E.4_K3.3_C3.2_[C-2G]_[T-1C]_H3.3_A3.1_F3.1_T3.2] noted as 6.93

Reported pKd ( Ic_S2_P4E.1_K4.1_C4.1_H4.1_A4.1_[A6C]_[T7G]_F4.1_[A9C]_T4.1 (ssRNA) RNA: UUUGAUUAAUAUGAUAUCGUUCUUUCUUGUAUCGUCUUCUUUCUCGAUAUCAUAUUAAUCUUU ) = 6.29
